All values here come from PubChem BioAssay (NCATS).

# protocol-description: Quantitative High-Throughput drug screen in 47 multiple myeloma cell lines against the NCATS MIPE library collection: KMS27_JCRB cell viability assay (AID 1918970); also: nearly all actives have a fitted effect of over 30% in size
# particulars: KMS27 myeloma cells, CellTiter-Glo ATP viability, 48 h; series mostly up to 45.8 µM
Results filed as inconclusive are left out. Calls of active or inactive are those of the source. Calls follow the shape of the dose curve; as a rule, active = well fitted cell-killing curve with a large enough effect; inconclusive = small, poorly fitted or top-dose-only effect, or effect the other way; inactive = no such curve, though single readings can be large or run the other way.
Outcome codes: active, inactive

>>> label_class("CCCS(=O)(=O)Nc1ccc(F)c(C(=O)c2c[nH]c3ncc(-c4ccc(Cl)cc4)cc23)c1F")
"inactive"
>>> label_class("OC(CN1CCC(Cc2ccc(F)cc2)CC1)c1ccc(Cl)cc1 (stereo unspecified)")
"inactive"
>>> label_class("Nc1nc2ccc(OC(F)(F)F)cc2s1")
"inactive"
>>> label_class("C#Cc1cccc(Nc2ncnc3cc(OCCOC)c(OCCOC)cc23)c1")
"active"
>>> label_class("CO[C@@H]1[C@H](N(C)C(=O)c2ccccc2)C[C@H]2O[C@]1(C)n1c3ccccc3c3c4c(c5c6ccccc6n2c5c31)C(=O)NC4")
"active"
>>> label_class("N[C@@H]1CONC1=O")
"inactive"

* * *

Each entry below carries its reported activity, percent of control.
# protocol-description: qHTS profiling for inhibitors of Plasmodium falciparum (DD2) proliferation (AID 743323)
# particulars: lower = more inhibition; at 28.7 µM (top of the series) unless noted
# Description: Plasmodium falciparum is a virulent malarial parasite that kills 1-2 million people worldwide each year. […] Because mature erythrocytes lack DNA, only Plasmodium-derived DNA is detected. The SYBR Green viability assay was adapted from a method described previously (Plouffe et al., 2008). […] The following morning, fluorescence intensity at 485(14) nm excitation and 535(25) nm emission wavelengths was measured on an EnVision (Perkin Elmer) plate reader. […]
quantity: activity, percent of control (%)

>>> recorded_result("Cc1cccc(-c2[nH]c(C(C)(C)C)nc2-c2ccc3nccnc3c2)n1")
67.1
>>> recorded_result("CS(=O)(=O)Oc1ccc2c(NC(N)=O)c(C(=O)c3ccc(Cl)cc3Cl)oc2c1")
83.2
>>> recorded_result("Cc1cc([C@@H](C)Nc2ccccc2C(=O)O)c2nc(N3CCOCC3)cc(=O)n2c1")
29.8
>>> recorded_result("NC(=O)C1CCCc2c1[nH]c1ccc(Cl)cc21 (stereo unspecified)")
94.6
>>> recorded_result("CCCn1c(=O)c2[nH]c(C34CC5CC3C[C@@H](C5)C4)nc2n(CCC)c1=O")
85.1
>>> recorded_result("O=c1[nH]c(-c2ccc(C(F)(F)F)cc2)nc2c1CSCC2")
103
>>> recorded_result("N#Cc1ccc(C(c2ccc(C#N)cc2)n2cncn2)cc1")
86.6
>>> recorded_result("O=C(Nc1cccnc1)N1CCC(Cc2cccc(Oc3ccc(C(F)(F)F)cn3)c2)CC1")
24.9
>>> recorded_result("COc1ccc2c3n(c(=NC(=O)c4cccnc4)nc2c1OC)CCN3")
12.2
>>> recorded_result("COc1ccc(CCN2CCN(CCCc3ccccc3)CC2)cc1OC")
65.7
>>> recorded_result("c1ccc(-c2nn3c(c2-c2ccnc4cc(OCCN5CCOCC5)ccc24)CCC3)nc1")
81.5
>>> recorded_result("CCN(CC)CCCC(C)Nc1ccnc2cc(Cl)ccc12 (stereo unspecified)")
2.54
>>> recorded_result("CCOc1cc(C(=O)Nc2ccc(Cl)c(-c3nc4ccccc4[nH]3)c2)cc(OCC)c1OCC")
15.9
>>> recorded_result("O=C(O)CCc1ccc(NCc2cccc(Oc3ccccc3)c2)cc1")
102
>>> recorded_result("CCc1ccc(CCOc2ccc(CC3SC(=O)NC3=O)cc2)nc1 (stereo unspecified)")
103
>>> recorded_result("CNCc1ccc(-c2[nH]c3cc(F)cc4c3c2CCNC4=O)cc1")
77.5
>>> recorded_result("NC(=O)c1ccc(-c2nc(-c3ccc4c(c3)OCO4)c(-c3ccccn3)[nH]2)cc1")
88.1
>>> recorded_result("CCn1c(-c2nonc2N)nc2cnc(Oc3cccc(NC(=O)c4ccc(OCCN5CCOCC5)cc4)c3)cc21")
20.7
>>> recorded_result("CC(C)C[C@H](NC(=O)[C@@H](O)[C@H](N)Cc1ccccc1)C(=O)O")
6.99
>>> recorded_result("O=C(O)c1ccc(-c2c[nH]c3ccc(-c4ccccc4)cc23)cc1C1CCCC1")
0.0014
>>> recorded_result("CC(C)(Sc1ccc(CCN(CCCCC2CCCCC2)C(=O)NC2CCCCC2)cc1)C(=O)O")
100
